- Target Or Test System: T1, EsCas13d, nuclease-dead (Eubacterium siraeum, UniProt B0MS50, R295A;H300A;R849A;H854A)
- T1 sequence: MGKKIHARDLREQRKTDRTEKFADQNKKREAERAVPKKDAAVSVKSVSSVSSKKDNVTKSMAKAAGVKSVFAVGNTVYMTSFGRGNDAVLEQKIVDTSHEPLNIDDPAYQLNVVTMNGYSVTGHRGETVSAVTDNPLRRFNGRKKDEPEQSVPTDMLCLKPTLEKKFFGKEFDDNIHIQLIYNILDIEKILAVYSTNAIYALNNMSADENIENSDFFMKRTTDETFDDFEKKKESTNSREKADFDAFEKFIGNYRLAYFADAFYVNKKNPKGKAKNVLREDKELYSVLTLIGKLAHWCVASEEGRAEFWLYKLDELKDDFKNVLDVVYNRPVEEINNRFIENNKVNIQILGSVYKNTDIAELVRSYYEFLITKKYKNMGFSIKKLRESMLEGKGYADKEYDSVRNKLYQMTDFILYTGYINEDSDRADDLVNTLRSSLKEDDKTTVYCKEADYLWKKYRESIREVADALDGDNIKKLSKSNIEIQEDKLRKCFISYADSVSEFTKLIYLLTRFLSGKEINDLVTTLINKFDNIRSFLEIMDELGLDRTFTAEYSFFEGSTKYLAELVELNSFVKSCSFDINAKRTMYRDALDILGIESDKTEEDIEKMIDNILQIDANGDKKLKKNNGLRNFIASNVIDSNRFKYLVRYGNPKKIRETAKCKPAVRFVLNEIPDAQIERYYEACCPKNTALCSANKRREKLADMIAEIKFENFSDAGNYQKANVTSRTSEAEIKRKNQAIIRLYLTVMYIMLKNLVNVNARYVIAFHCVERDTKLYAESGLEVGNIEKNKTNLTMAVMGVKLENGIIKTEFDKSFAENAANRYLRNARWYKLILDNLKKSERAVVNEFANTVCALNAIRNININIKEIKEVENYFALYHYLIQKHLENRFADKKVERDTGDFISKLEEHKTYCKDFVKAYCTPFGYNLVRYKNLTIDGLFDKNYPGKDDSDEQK
- Test Summary: crRNA (strand 1, pre-loaded); Mg2+; 40 mM Tris-HCl pH 7.5, 150 mM NaCl, 6 mM MgCl2, 1 mM DTT, 0.1% Tween-20, 0.2 mg/ml BSA; 25 C; 10 min per concentration, then washed
- Run Conditions: tags: His6-TwinStrep-SUMO cleaved; N-terminal SNAP kept (SNAP-Surface 488); label: 3' end held by stalled T7 RNA polymerase
Simple rule here: Kd less than 0.03 µM is Yes, otherwise No.

See these solved cases before continuing.
Binder: target 1 MT 5'PFS CUA 3'PFS UUC (mixed) RNA 1: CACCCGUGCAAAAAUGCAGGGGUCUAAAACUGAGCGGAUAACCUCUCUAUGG RNA 2: GGGAAUGGAUCCACAUCUACGAAUUCCUACCAUAGAGAGGUUAUCCGCUCAUUCAGAUCGGAAGAGCACACGU
Discrete Label: Yes
//
Binder: target 1 C6A,A16U (mixed) RNA 1: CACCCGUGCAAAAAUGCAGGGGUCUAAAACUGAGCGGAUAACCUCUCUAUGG RNA 2: GGGAAUGGAUCCACAUCUACGAAUUCGUACCAUAGUGAGGUUAUCAGCUCACCGAGAUCGGAAGAGCACACGU
Discrete Label: No

# input Quick check: does target 3 U2C,C6G (mixed) RNA 1: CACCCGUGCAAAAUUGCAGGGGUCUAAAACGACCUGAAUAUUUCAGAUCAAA RNA 2: GGGAAUGGAUCCACAUCUACGAAUUCGUUUUUGAUCUGAAAUAUUGAGGCCUGCAGAUCGGAAGAGCACACGU have Kd under 0.03 µM?
# output No

# input For this binder, is Kd lower than 0.03 µM? target 3 insG 3' of 16,insA 3' of 2 (mixed) RNA 1: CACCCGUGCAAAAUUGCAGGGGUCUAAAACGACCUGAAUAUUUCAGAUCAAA RNA 2: GGGAAUGGAUCCACAUCUACGAAUUCGUUUUUGAUCGUGAAAUAUUCAGGUACUGCAGAUCGGAAGAGCACACGU
# output No

# input Identify whether the binder target 1 C7G,A18U (mixed) RNA 1: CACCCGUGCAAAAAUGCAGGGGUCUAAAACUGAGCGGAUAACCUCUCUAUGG RNA 2: GGGAAUGGAUCCACAUCUACGAAUUCGUACCAUUGAGAGGUUAUGCGCUCACCGAGAUCGGAAGAGCACACGU records Kd below 0.03 µM.
# output No

# input Input target 2 MT 5'PFS UCU 3'PFS CAA (mixed) RNA 1: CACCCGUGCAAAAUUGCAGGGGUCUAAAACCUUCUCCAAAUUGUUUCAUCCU RNA 2: GGGAAUGGAUCCACAUCUACGAAUUCUCUAGGAUGAAACAAUUUGGAGAAGCAAAGAUCGGAAGAGCACACGU ; condition: Kd strictly below 0.03 µM. Does it hold?
# output Yes

Every entry's value here was drawn from paper PMC10786891.
